- Tested on: Enterococcus faecium OC 3312 vancomycin resistant
- assay method text: MIC, microdilution broth method (NCCLS), strain A
- experimental context: read-out: MIC A Strain
property label: MIC (µg/mL)
Write down the numeric answer in µg/mL and omit the unit.

-- ask Tell us which MIC value is on record for "CO[C@H]1/C=C/O[C@@]2(C)Oc3c(C)c(O)c4c(O)c(c(CC[N+](=O)[O-])c(O)c4c3C2=O)NC(=O)/C(C)=C\C=C\[C@H](C)[C@H](O)[C@@H](C)[C@@H](O)[C@@H](C)[C@H](OC(C)=O)[C@@H]1C"
-- reply 1

-- ask Tell us which MIC value is on record for "CO[C@H]1/C=C/O[C@@]2(C)Oc3c(C)c(O)c4c(O)c(c(C(C[N+](=O)[O-])C[N+](=O)[O-])c(O)c4c3C2=O)NC(=O)/C(C)=C\C=C\[C@H](C)[C@H](O)[C@@H](C)[C@@H](O)[C@@H](C)[C@H](OC(C)=O)[C@@H]1C"
-- reply 4

-- ask Tell us which MIC value is on record for "CO[C@H]1/C=C/O[C@@]2(C)Oc3c(C)c(O)c4c(O)c(c(C(CN)CN)c(O)c4c3C2=O)NC(=O)/C(C)=C\C=C\[C@H](C)[C@H](O)[C@@H](C)[C@@H](O)[C@@H](C)[C@H](OC(C)=O)[C@@H]1C"
-- reply 1

-- ask Tell us which MIC value is on record for "CO[C@H]1/C=C/O[C@@]2(C)Oc3c(C)c(O)c4c(O)c(c(CCNCc5ccc(N6CCN(C)CC6)cc5)c(O)c4c3C2=O)NC(=O)/C(C)=C\C=C\[C@H](C)[C@H](O)[C@@H](C)[C@@H](O)[C@@H](C)[C@H](OC(C)=O)[C@@H]1C"
-- reply 0.5

-- ask Tell us which MIC value is on record for "CO[C@H]1/C=C/O[C@@]2(C)Oc3c(C)c(O)c4c(O)c(c(CCNCc5ccccc5)c(O)c4c3C2=O)NC(=O)/C(C)=C\C=C\[C@H](C)[C@H](O)[C@@H](C)[C@@H](O)[C@@H](C)[C@H](OC(C)=O)[C@@H]1C"
-- reply 0.12

-- ask Tell us which MIC value is on record for "CO[C@H]1/C=C/O[C@@]2(C)Oc3c(C)c(O)c4c(O)c(c(CCNCc5ccc(-c6ncccn6)cc5)c(O)c4c3C2=O)NC(=O)/C(C)=C\C=C\[C@H](C)[C@H](O)[C@@H](C)[C@@H](O)[C@@H](C)[C@H](OC(C)=O)[C@@H]1C"
-- reply 1

-- ask Tell us which MIC value is on record for "CO[C@H]1/C=C/O[C@@]2(C)Oc3c(C)c(O)c4c(c3C2=O)C(=O)C(C(C[N+](=O)[O-])C[N+](=O)[O-])=C(NC(=O)/C(C)=C\C=C\[C@H](C)[C@H](O)[C@@H](C)[C@@H](O)[C@@H](C)[C@H](OC(C)=O)[C@@H]1C)C4=O"
-- reply 2

-- ask Tell us which MIC value is on record for "CO[C@H]1/C=C/O[C@@]2(C)Oc3c(C)c(O)c4c(c3C2=O)C(=O)C(CC[N+](=O)[O-])=C(NC(=O)/C(C)=C\C=C\[C@H](C)[C@H](O)[C@@H](C)[C@@H](O)[C@@H](C)[C@H](OC(C)=O)[C@@H]1C)C4=O"
-- reply 0.12
